The following compounds are shown together with reported melting point values.

[
  {
    "compound": "C[C@@H](CCO)Nc1ccc([N+](=O)[O-])c(Nc2ccc3[nH]ncc3c2)n1",
    "melting point": "> 270 °C"
  },
  {
    "compound": "O=[N+]([O-])c1ccc(N2CCNCC2)nc1Nc1ccc2cn[nH]c2c1",
    "melting point": "268 °C (dec.)"
  },
  {
    "compound": "O=[N+]([O-])c1ccc(NCc2ccccn2)nc1Nc1ccc2cn[nH]c2c1",
    "melting point": "256 °C (dec.)"
  },
  {
    "compound": "O=[N+]([O-])c1ccc(NCc2cccnc2)nc1Nc1ccc2cn[nH]c2c1",
    "melting point": "> 270 °C"
  },
  {
    "compound": "O=[N+]([O-])c1ccc(NN2CCOCC2)nc1Nc1ccc2[nH]ncc2c1",
    "melting point": "> 270 °C"
  },
  {
    "compound": "O=[N+]([O-])c1ccc(N2CCNCC2)nc1Nc1ccc2[nH]ncc2c1",
    "melting point": "270 °C (dec.)"
  },
  {
    "compound": "O=[N+]([O-])c1ccc(NC(CO)CO)nc1Nc1ccc2[nH]ncc2c1",
    "melting point": "> 270 °C"
  },
  {
    "compound": "CN1CCN(c2ccc([N+](=O)[O-])c(Nc3ccc4cn[nH]c4c3)n2)CC1 (hydrate or solvate)",
    "melting point": "253 °C (dec.)"
  },
  {
    "compound": "CN1CCN(Nc2ccc([N+](=O)[O-])c(Nc3ccc4cn[nH]c4c3)n2)CC1",
    "melting point": "260 °C (dec.)"
  }
]

* * *

- subjectOfTest: HBV polymerase (Hepatitis B virus genotype A2 subtype adw2, UniProt P03159)
- Construct: made in house; host or cells: E. coli
- Sequence (P03159 whole entry): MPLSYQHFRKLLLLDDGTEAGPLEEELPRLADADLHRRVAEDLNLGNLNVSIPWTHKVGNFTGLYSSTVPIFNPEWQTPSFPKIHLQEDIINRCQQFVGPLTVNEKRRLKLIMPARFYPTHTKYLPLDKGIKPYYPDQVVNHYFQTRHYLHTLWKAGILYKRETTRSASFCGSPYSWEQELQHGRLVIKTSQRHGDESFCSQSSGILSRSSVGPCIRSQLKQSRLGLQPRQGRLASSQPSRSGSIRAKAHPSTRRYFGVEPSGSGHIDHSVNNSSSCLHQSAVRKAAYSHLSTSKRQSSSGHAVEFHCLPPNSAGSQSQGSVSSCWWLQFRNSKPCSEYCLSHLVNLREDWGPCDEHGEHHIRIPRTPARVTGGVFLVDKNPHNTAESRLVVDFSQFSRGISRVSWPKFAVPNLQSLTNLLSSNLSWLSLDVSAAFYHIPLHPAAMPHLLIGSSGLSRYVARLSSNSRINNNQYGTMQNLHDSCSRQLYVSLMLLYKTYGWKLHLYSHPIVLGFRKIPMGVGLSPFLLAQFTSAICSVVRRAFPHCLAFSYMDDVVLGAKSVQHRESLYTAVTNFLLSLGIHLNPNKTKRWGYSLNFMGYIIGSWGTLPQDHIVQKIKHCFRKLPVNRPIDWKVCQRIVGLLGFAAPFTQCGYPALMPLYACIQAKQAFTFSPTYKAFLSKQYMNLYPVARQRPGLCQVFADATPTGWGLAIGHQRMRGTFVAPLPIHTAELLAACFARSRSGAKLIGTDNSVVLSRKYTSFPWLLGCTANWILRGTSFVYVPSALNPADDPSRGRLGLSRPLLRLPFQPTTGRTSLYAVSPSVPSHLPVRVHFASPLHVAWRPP
- experimentSummary: In vitro reverse transcription activity of HBV polymerase (ELISA-type, DIG/biotin nucleotides)
- Format: biochemical
- testParameters: 0.01 μg/ml test compound

[
  {
    "molecule": "CNc1ccc([N+](=O)[O-])c(Nc2ccc3[nH]ncc3c2)n1",
    "measureUnit": "%",
    "Inhibition activity on HBV-RT (%)": 20
  },
  {
    "molecule": "COCC(C)Nc1ccc([N+](=O)[O-])c(Nc2ccc3[nH]ncc3c2)n1 (stereo not drawn)",
    "measureUnit": "%",
    "Inhibition activity on HBV-RT (%)": 47
  },
  {
    "molecule": "CC(C)CNc1ccc([N+](=O)[O-])c(Nc2ccc3[nH]ncc3c2)n1",
    "measureUnit": "%",
    "Inhibition activity on HBV-RT (%)": 47
  },
  {
    "molecule": "CC(C)Nc1ccc([N+](=O)[O-])c(Nc2ccc3[nH]ncc3c2)n1",
    "measureUnit": "%",
    "Inhibition activity on HBV-RT (%)": 53
  },
  {
    "molecule": "CC(C)Nc1ccc([N+](=O)[O-])c(Nc2ccc3cn[nH]c3c2)n1",
    "measureUnit": "%",
    "Inhibition activity on HBV-RT (%)": 49
  },
  {
    "molecule": "CNc1ccc([N+](=O)[O-])c(Nc2ccc3cn[nH]c3c2)n1",
    "measureUnit": "%",
    "Inhibition activity on HBV-RT (%)": 26
  }
]

* * *

- subjectOfTest: HBV polymerase (Hepatitis B virus genotype A2 subtype adw2, UniProt P03159)
- Construct: made in house; host or cells: E. coli
- experimentSummary: In vitro reverse transcription activity of HBV polymerase (ELISA-type, DIG/biotin nucleotides)
- Assay type: biochemical
- testParameters: 0.1 μg/ml test compound; read-out: Inhibition activity on HBV-RT (%)
The following molecules are shown together with reported inhibition at 0.1 µg/mL values.

[
  {
    "recordSmiles": "O=[N+]([O-])c1ccc(N2CCNCC2)nc1Nc1ccc2[nH]ncc2c1",
    "measureUnit": "%",
    "inhibition at 0.1 µg/mL": 66
  },
  {
    "recordSmiles": "O=[N+]([O-])c1ccc(NCc2ccncc2)nc1Nc1ccc2[nH]ncc2c1",
    "measureUnit": "%",
    "inhibition at 0.1 µg/mL": 65
  },
  {
    "recordSmiles": "C[C@@H](CCO)Nc1ccc([N+](=O)[O-])c(Nc2ccc3cn[nH]c3c2)n1",
    "measureUnit": "%",
    "inhibition at 0.1 µg/mL": 35
  },
  {
    "recordSmiles": "CN1CCN(c2ccc([N+](=O)[O-])c(Nc3ccc4[nH]ncc4c3)n2)CC1",
    "measureUnit": "%",
    "inhibition at 0.1 µg/mL": 54
  },
  {
    "recordSmiles": "COc1ccc([N+](=O)[O-])c(Nc2ccc3cn[nH]c3c2)n1",
    "measureUnit": "%",
    "inhibition at 0.1 µg/mL": 50
  },
  {
    "recordSmiles": "COc1ccc([N+](=O)[O-])c(Nc2ccc3[nH]ncc3c2)n1",
    "measureUnit": "%",
    "inhibition at 0.1 µg/mL": 54
  },
  {
    "recordSmiles": "CN1CCN(c2ccc([N+](=O)[O-])c(Nc3ccc4cn[nH]c4c3)n2)CC1",
    "measureUnit": "%",
    "inhibition at 0.1 µg/mL": 40
  },
  {
    "recordSmiles": "O=[N+]([O-])c1ccc(N2CCN(CCO)CC2)nc1Nc1ccc2cn[nH]c2c1",
    "measureUnit": "%",
    "inhibition at 0.1 µg/mL": 38
  },
  {
    "recordSmiles": "O=[N+]([O-])c1ccc(NCc2ccccn2)nc1Nc1ccc2cn[nH]c2c1",
    "measureUnit": "%",
    "inhibition at 0.1 µg/mL": 60
  },
  {
    "recordSmiles": "O=[N+]([O-])c1ccc(NC(CO)CO)nc1Nc1ccc2[nH]ncc2c1",
    "measureUnit": "%",
    "inhibition at 0.1 µg/mL": 49
  },
  {
    "recordSmiles": "O=[N+]([O-])c1ccc(N2CCNCC2)nc1Nc1ccc2cn[nH]c2c1",
    "measureUnit": "%",
    "inhibition at 0.1 µg/mL": 43
  },
  {
    "recordSmiles": "O=[N+]([O-])c1ccc(NN2CCOCC2)nc1Nc1ccc2[nH]ncc2c1",
    "measureUnit": "%",
    "inhibition at 0.1 µg/mL": 49
  },
  {
    "recordSmiles": "O=[N+]([O-])c1ccc(N2CCC(O)CC2)nc1Nc1ccc2cn[nH]c2c1",
    "measureUnit": "%",
    "inhibition at 0.1 µg/mL": 35
  }
]

* * *

- subjectOfTest: HBV polymerase (Hepatitis B virus genotype A2 subtype adw2)
- Construct: made in house; host or cells: E. coli
- experimentSummary: In vitro reverse transcription activity of HBV polymerase (ELISA-type, DIG/biotin nucleotides)
- Type: biochemical
- testParameters: 1 μg/ml test compound
The following compounds are shown together with reported Inhibition activity on HBV-RT (%) values.

[
  {
    "compound": "CNc1ccc([N+](=O)[O-])c(Nc2ccc3cn[nH]c3c2)n1 [Example 4]",
    "subjectOfTest": "HBV polymerase (Hepatitis B virus genotype A2 subtype adw2)",
    "Inhibition activity on HBV-RT (%)": 60
  },
  {
    "compound": "COCC(C)Nc1ccc([N+](=O)[O-])c(Nc2ccc3[nH]ncc3c2)n1 (stereo not drawn) [Example 15]",
    "subjectOfTest": "HBV polymerase (Hepatitis B virus genotype A2 subtype adw2)",
    "Inhibition activity on HBV-RT (%)": 97
  },
  {
    "compound": "CC(C)Nc1ccc([N+](=O)[O-])c(Nc2ccc3cn[nH]c3c2)n1 [Example 6]",
    "subjectOfTest": "HBV polymerase (Hepatitis B virus genotype A2 subtype adw2)",
    "Inhibition activity on HBV-RT (%)": 91
  },
  {
    "compound": "CC(C)CNc1ccc([N+](=O)[O-])c(Nc2ccc3[nH]ncc3c2)n1 [Example 7]",
    "subjectOfTest": "HBV polymerase (Hepatitis B virus genotype A2 subtype adw2)",
    "Inhibition activity on HBV-RT (%)": 95
  },
  {
    "compound": "CNc1ccc([N+](=O)[O-])c(Nc2ccc3[nH]ncc3c2)n1 [Example 3]",
    "subjectOfTest": "HBV polymerase (Hepatitis B virus genotype A2 subtype adw2)",
    "Inhibition activity on HBV-RT (%)": 58
  },
  {
    "compound": "CC(C)Nc1ccc([N+](=O)[O-])c(Nc2ccc3[nH]ncc3c2)n1 [Example 5]",
    "subjectOfTest": "HBV polymerase (Hepatitis B virus genotype A2 subtype adw2)",
    "Inhibition activity on HBV-RT (%)": 96
  }
]

Where these numbers come from: patent US6743795B1
